This collection of values is drawn from paper PMC3432122.

# TGT: tubulin
# Construct: purified tubulin (alpha/beta heterodimer)
# PROTOCOL DETAILS: tryptophan fluorescence quenching titration; competition with BODIPY FL-vinblastine (Ki […])
pKd: −log10 of the molar value.
REPORTED PROPERTY: pKd

{"COMPOUND": "O=C1NC(=S)S/C1=C\\c1ccc(-c2ccc(Br)c(Cl)c2)o1 [BCFMT]", "VALUE OBSERVED": 5.08}
